# test details: Plasma clearance in Sprague-Dawley rat at 5 mg/kg, iv
# Format: ADME, organism-based
parameter measured: clearance

Completed entries (count: 2):
mol=O=S(=O)(N[C@H]1CC[C@@H](c2nnc3cnc4[nH]ccc4n23)C1)C1CC1 parameter_measured=clearance reported_value="48.3 mL/min/kg"
mol=O=S(=O)(N[C@]12CC[C@](c3nnc4cnc5[nH]ccc5n43)(CC1)CC2)C1CC1 parameter_measured=clearance reported_value="51.7 mL/min/kg"

Per the record, O=S(=O)(N[C@H]1CC[C@@H](c2nnc3cnc4[nH]ccc4n23)C1)C1CCC1 has clearance of 41.7 mL/min/kg

====

# test details: AUC (0 to infinity) in Sprague-Dawley rat at 10 mg/kg, po
# Type: ADME, organism-based
# Set-up: dose 10 mg/kg, time infinity, route oral
# test parameters: in vivo
parameter measured: AUC(0-inf)

Completed entries (count: 4):
compound=O=S(=O)(N[C@]12CC[C@](c3nnc4cnc5[nH]ccc5n43)(CC1)CC2)C1CC1 reported_value="410 ng·h/mL"
compound=c1cc2c(ncc3nnc(C4CCCCC4)n32)[nH]1 reported_value="280 ng·h/mL"
compound="O=S(=O)(N[C@H]1CCC[C@@H](c2nnc3cnc4[nH]ccc4n23)C1)C1CC1 (racemic)" reported_value="50 ng·h/mL"
compound=O=S(=O)(N[C@H]1CC[C@@H](c2nnc3cnc4[nH]ccc4n23)C1)C1CC1 reported_value="1100 ng·h/mL"

Let us examine a further case.
Per the record, O=S(=O)(N[C@H]1CC[C@@H](c2nnc3cnc4[nH]ccc4n23)C1)C1CCC1 has AUC(0-inf) of 860 ng·h/mL
